- run-description: Stability of Lisuridhydrogenmaleat in citrate-buffered aqueous solutions (RP-HPLC, UV detection)
- conditions: citrate buffer, pH 5.1, Zersetzung, Raumtemperatur (25°C), 180 Tage, protected from light, no cosolvent, citrate buffer pH 5.1, 4.5, 3.5
parameter: degraded at 4320 h
Give me the value, and tack the unit on after it.

Ask: Which degraded at 4320 h is reported for this molecule? CCN(CC)C(=O)N[C@H]1C=C2c3cccc4[nH]cc(c34)C[C@H]2N(C)C1 [Lisuridhydrogenmaleat]
Reply: 5%

---

- run-description: Stability of Lisuridhydrogenmaleat in citrate-buffered aqueous solutions (RP-HPLC, UV detection)
- conditions: citrate buffer, pH 4.5, Mittlere Fläche (Lisuridpeakfläche zur totalen Peakfläche des Chromatogramms), Erhöhte Temperatur (40°C), pH 4.5, t 180 d, 2 mg/3 mL
parameter: remaining at 4320 h (%)
Value expressed in %; do not type the unit.

Ask: Which remaining at 4320 h is reported for this compound? CCN(CC)C(=O)N[C@H]1C=C2c3cccc4[nH]cc(c34)C[C@H]2N(C)C1 [Lisuridhydrogenmaleat]
Reply: 87.7

---

- run-description: Stability of Lisuridhydrogenmaleat in citrate-buffered aqueous solutions (RP-HPLC, UV detection)
- conditions: citrate buffer, pH 3.5, Mittlere Fläche (Lisuridpeakfläche zur totalen Peakfläche des Chromatogramms), Erhöhte Temperatur (40°C), pH 3.5, t 30 d, 2 mg/3 mL
parameter: remaining at 720 h (%)
Value expressed in %; do not type the unit.

Ask: Which remaining at 720 h is reported for this compound? CCN(CC)C(=O)N[C@H]1C=C2c3cccc4[nH]cc(c34)C[C@H]2N(C)C1 [Lisuridhydrogenmaleat]
Reply: 90.4

---

- run-description: Stability of Lisuridhydrogenmaleat in citrate-buffered aqueous solutions (RP-HPLC, UV detection)
- conditions: citrate buffer, pH 3.5, Mittlere Fläche (Lisuridpeakfläche zur totalen Peakfläche des Chromatogramms), Erhöhte Temperatur (40°C), pH 3.5, t 180 d, 2 mg/3 mL
parameter: remaining at 4320 h (%)
Value expressed in %; do not type the unit.

Ask: Which remaining at 4320 h is reported for this compound? CCN(CC)C(=O)N[C@H]1C=C2c3cccc4[nH]cc(c34)C[C@H]2N(C)C1 [Lisuridhydrogenmaleat]
Reply: 69.9

---

- run-description: Stability of Lisuridhydrogenmaleat in citrate-buffered aqueous solutions (RP-HPLC, UV detection)
- conditions: citrate buffer, pH 5.1, Mittlere Fläche (Lisuridpeakfläche zur totalen Peakfläche des Chromatogramms), Erhöhte Temperatur (40°C), pH 5.1, t 180 d, 2 mg/3 mL
parameter: remaining at 4320 h (%)
Value expressed in %; do not type the unit.

Ask: Which remaining at 4320 h is reported for this compound? CCN(CC)C(=O)N[C@H]1C=C2c3cccc4[nH]cc(c34)C[C@H]2N(C)C1 [Lisuridhydrogenmaleat]
Reply: 88

---

- run-description: Stability of Lisuridhydrogenmaleat in citrate-buffered aqueous solutions (RP-HPLC, UV detection)
- conditions: citrate buffer, Zersetzung, Kühlschrank (6-8°C), 180 Tage, protected from light, no cosolvent
parameter: degraded at 4320 h

Ask: Which degraded at 4320 h is reported for this compound? CCN(CC)C(=O)N[C@H]1C=C2c3cccc4[nH]cc(c34)C[C@H]2N(C)C1 [Lisuridhydrogenmaleat]
Reply: ~0.7%

---

- run-description: Stability of Lisuridhydrogenmaleat in citrate-buffered aqueous solutions (RP-HPLC, UV detection)
- conditions: citrate buffer, Wirkstoff zersetzt, 40°C, 180 Tage, protected from light, no cosolvent
parameter: degraded at 4320 h

Ask: Which degraded at 4320 h is reported for this compound? CCN(CC)C(=O)N[C@H]1C=C2c3cccc4[nH]cc(c34)C[C@H]2N(C)C1 [Lisuridhydrogenmaleat]
Reply: ≤ 30%

---

- run-description: Stability of Lisuridhydrogenmaleat in citrate-buffered aqueous solutions (RP-HPLC, UV detection)
- conditions: citrate buffer, pH 3.5, Mittlere Fläche (Lisuridpeakfläche zur totalen Peakfläche des Chromatogramms), Erhöhte Temperatur (40°C), pH 3.5, t 90 d, 2 mg/3 mL
parameter: remaining at 2160 h (%)
Value expressed in %; do not type the unit.

Ask: Which remaining at 2160 h is reported for this compound? CCN(CC)C(=O)N[C@H]1C=C2c3cccc4[nH]cc(c34)C[C@H]2N(C)C1 [Lisuridhydrogenmaleat]
Reply: 73.4

---

- run-description: Solubility of free ergoline compounds in water / phosphate-buffered solution
- Type: physicochemical
- conditions: phosphate-buffered solution; free compound, phosphatgepufferte Lösung (pH 7.4); read-out: Löslichkeit
parameter: solubility
Give me the value, and tack the unit on after it.

Ask: Which solubility is reported for this compound? CCCN1C[C@@H](NC(=O)N(CC)CC)C[C@@H]2c3cccc4[nH]cc(c34)C[C@H]21
Reply: 26 µg/mL
